Entries and their measured Dmax follow.
- EXPERIMENTAL SYSTEM: L858R/T790M/C797S EGFR (Homo sapiens, UniProt P00533, C797S/L858R/T790M)
- Construct: expressed in transfected cells; host or cells: H1975 clone #25 (lentiviral over-expression, endogenous EGFR knocked out by sgRNA)
- Sequence (P00533 25-1210 T790M/C797S/L858R): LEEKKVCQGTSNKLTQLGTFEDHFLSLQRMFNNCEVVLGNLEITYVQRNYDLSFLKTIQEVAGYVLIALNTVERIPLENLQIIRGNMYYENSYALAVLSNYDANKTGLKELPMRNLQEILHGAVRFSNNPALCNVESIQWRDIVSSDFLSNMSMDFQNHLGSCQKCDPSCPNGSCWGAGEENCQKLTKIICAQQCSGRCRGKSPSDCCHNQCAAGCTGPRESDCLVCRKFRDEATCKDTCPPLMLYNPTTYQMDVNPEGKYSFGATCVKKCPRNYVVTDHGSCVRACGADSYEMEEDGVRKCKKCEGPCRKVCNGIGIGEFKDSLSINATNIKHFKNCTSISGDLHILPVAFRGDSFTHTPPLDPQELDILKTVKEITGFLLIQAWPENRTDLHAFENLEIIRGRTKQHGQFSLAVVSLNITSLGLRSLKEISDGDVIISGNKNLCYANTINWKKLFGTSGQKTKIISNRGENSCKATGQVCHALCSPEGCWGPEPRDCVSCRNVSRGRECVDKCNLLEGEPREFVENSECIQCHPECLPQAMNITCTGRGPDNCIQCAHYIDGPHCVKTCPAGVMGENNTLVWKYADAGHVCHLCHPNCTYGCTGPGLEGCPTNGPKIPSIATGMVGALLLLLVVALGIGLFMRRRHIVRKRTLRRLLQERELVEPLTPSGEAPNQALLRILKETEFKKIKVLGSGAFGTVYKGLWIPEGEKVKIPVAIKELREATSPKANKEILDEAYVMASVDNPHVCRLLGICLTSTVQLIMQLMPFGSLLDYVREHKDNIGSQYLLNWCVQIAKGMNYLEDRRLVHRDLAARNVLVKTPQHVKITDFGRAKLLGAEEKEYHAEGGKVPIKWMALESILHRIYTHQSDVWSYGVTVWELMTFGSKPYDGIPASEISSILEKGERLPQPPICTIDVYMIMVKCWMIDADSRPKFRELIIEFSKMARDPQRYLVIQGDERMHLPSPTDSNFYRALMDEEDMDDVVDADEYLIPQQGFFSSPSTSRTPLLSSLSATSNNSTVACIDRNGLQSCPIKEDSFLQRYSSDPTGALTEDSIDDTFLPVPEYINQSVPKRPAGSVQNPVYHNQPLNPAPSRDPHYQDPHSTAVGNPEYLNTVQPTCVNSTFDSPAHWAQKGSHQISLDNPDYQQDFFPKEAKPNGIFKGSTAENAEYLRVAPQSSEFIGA
- ASSAY: EGFR degradation HTRF assay in H1975-clone #25 (LTC) cells
- Format: cell-based
- RECORDED CONDITIONS: NCI-H1975, H1975 # 25-LTC (L858R/T790M/C797S), 16h treatment, maximum percentage of degradation
# value in %; strip the unit string

Look over these answered cases.
| COMPOUND | ASSAY RESULT |
| --- | --- |
| Cc1cc2cc(n1)-c1cnn(C)c1OCCC[C@@H](C)CN1/C(=N/C2=O)Nc2ccc(N3CCN(CCCNc4cc(F)c([C@H]5CCC(=O)NC5=O)c(F)c4)CC3)cc21 [Example 400] | 89.8 |
| Cc1cc2cc(n1)-c1c(C)nn(C)c1OCCC[C@@H](C)CN1/C(=N/C2=O)Nc2ccc(C(=O)N(C)C3CCN(CCc4cc(F)c([C@H]5CCC(=O)NC5=O)c(F)c4)CC3)cc21 [Example 233] | 91.2 |

Dmax reading for Cc1cc2cc(n1)-c1cnn(C)c1OCCC[C@@H](C)CN1/C(=N/C2=O)Nc2ccc(C(=O)N[C@H]3CCN(CCc4cc(F)c([C@H]5CCC(=O)NC5=O)c(F)c4)C[C@H]3F)cc21 [Example 343] : 90.5

----------
- EXPERIMENTAL SYSTEM: L858R/T790M/C797S EGFR (Homo sapiens, UniProt P00533, C797S/L858R/T790M)
- Construct: expressed in transfected cells; host or cells: H1975 clone #25 (lentiviral over-expression, endogenous EGFR knocked out by sgRNA)
- ASSAY: EGFR degradation HTRF assay in H1975-clone #25 (LTC) cells
- Format: cell-based
- RECORDED CONDITIONS: H1975 # 25-LTC (L858R/T790M/C797S), 16h treatment, HTRF
Entries and their measured DC50 follow.
# value in nM; strip the unit string

Look over these answered cases.
| COMPOUND | UNIT NAME | DC50 |
| --- | --- | --- |
| CO[C@H]1CN(CCc2cc(F)c([C@H]3CCC(=O)NC3=O)c(F)c2)CC[C@H]1N(C)C(=O)c1ccc2c(c1)N1C[C@H](C)CCCOc3c(cnn3C)-c3cc(cc(C)n3)C(=O)/N=C/1N2 [Example 255] | nM | 0.599 |
| Cc1cc2cc(n1)-c1cnn(C)c1OCCC[C@@H](C)CN1/C(=N/C2=O)Nc2ccc(OC3CCN(C(=O)C4CN(c5cc(F)c([C@H]6CCC(=O)NC6=O)c(F)c5)C4)CC3)cc21 [Example 156] | nM | 0.634 |
| Cc1cc2cc(n1)-c1cnn(C)c1OCCC[C@@H](C)CN1/C(=N/C2=O)Nc2ccc(CN3CCN(C(=O)[C@@H]4CCN(c5cc(F)c([C@H]6CCC(=O)NC6=O)c(F)c5)C4)CC34COC4)cc21 [Example 199] | nM | 0.638 |
| Cc1cc2cc(n1)-c1cnn(C)c1OCCCCCN1/C(=N/C2=O)Nc2ccc(CN3CCN(CCc4cc(F)c([C@H]5CCC(=O)NC5=O)c(F)c4)CC3)cc21 [Example 144] | nM | 0.761 |

// switching to the query compound
Here Cc1cc2cc(n1)-c1cnn(C)c1OCCC[C@H](C)CN1/C(=N/C2=O)Nc2c(C)cc(CN3CCN(C(=O)C4CN(c5cc(F)c([C@H]6CCC(=O)NC6=O)c(F)c5)C4)CC3)cc21 [Example 154] was tested on L858R/T790M/C797S EGFR (Homo sapiens, UniProt P00533, C797S/L858R/T790M), and its DC50 came to 0.998
